target: T1, Survivin (purified recombinant Survivin protein) (human, UniProt O15392 1-140, limits assumed, biotinylated on the Avi-tag by BirA (antigens for selection and ELISA)); assay: multipoint protein ELISA: 50 nM immobilised target, 3-fold serial dilutions of purified Fab, protein L-HRP, sigmoidal fit
T1 construct: also called Baculoviral IAP repeat-containing protein 5; BIRC5
T1 sequence (O15392 1-140 limits assumed): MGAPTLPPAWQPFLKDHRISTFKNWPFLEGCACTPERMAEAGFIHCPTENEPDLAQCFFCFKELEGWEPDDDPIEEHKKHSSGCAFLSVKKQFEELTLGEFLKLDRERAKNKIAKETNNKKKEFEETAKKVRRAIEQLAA
For each entry below, report its EC50 value.
Value expressed in nM; do not type the unit.

Entry SUR-FL-22 (Fab, V domains shown, also called SUR-FL-22 Fab) VH: EVQLVESGGGLVQPGGSLRLSCAASGFNFYSSYIHWVRQAPGKGLEWVASIYSYSSSTSYADSVKGRFTISADTSKNTAYLQMNSLRAEDTAVYYCARAGWYWYYGIQFAFDYWGQGTLVTVSS VL: DIQMTQSPSSLSASVGDRVTITCRASQSVSSAVAWYQQKPGKAPKLLIYSASSLYSGVPSRFSGSRSGTDFTLTISSLQPEDFATYYCQQQRYGSLITFGQGTKVEIKR ; EC50 = 3

Per the record, SUR-FL-31 (Fab, V domains shown, also called SUR-FL-31 Fab) VH: EVQLVESGGGLVQPGGSLRLSCAASGFNFSSSSIHWVRQAPGKGLEWVASISSYSGYTYYADSVKGRFTISADTSKNTAYLQMNSLRAEDTAVYYCARGKQKSYGQWYFYYWAIDYWGQGTLVTVSS VL: DIQMTQSPSSLSASVGDRVTITCRASQSVSSAVAWYQQKPGKAPKLLIYSASSLYSGVPSRFSGSRSGTDFTLTISSLQPEDFATYYCQQSSSSLITFGQGTKVEIKR has EC50 of 2

// EC50 lookup, binder = SUR-N-53 (Fab, V domains shown, also called SUR-N-53 Fab) VH: EVQLVESGGGLVQPGGSLRLSCAASGFNVSSSYIHWVRQAPGKGLEWVASIYSYYGSTSYADSVKGRFTISADTSKNTAYLQMNSLRAEDTAVYYCARSFTEKWAYSWAIDYWGQGTLVTVSS VL: DIQMTQSPSSLSASVGDRVTITCRASQSVSSAVAWYQQKPGKAPKLLIYSASSLYSGVPSRFSGSRSGTDFTLTISSLQPEDFATYYCQQYAWSLFTFGQGTKVEIKR , result: 100

Entry SUR-N-28 (Fab, V domains shown, also called SUR-N-28 Fab) VH: EVQLVESGGGLVQPGGSLRLSCAASGFNFSSSYIHWVRQAPGKGLEWVASIYSSYGYTSYADSVKGRFTISADTSKNTAYLQMNSLRAEDTAVYYCARSYYYQYSGGWRGYYHALDYWGQGTLVTVSS VL: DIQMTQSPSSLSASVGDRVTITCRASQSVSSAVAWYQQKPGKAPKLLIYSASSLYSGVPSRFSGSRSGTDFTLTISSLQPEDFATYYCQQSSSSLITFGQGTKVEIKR , EC50 reported as 3

Memo: SUR-FL-47 (Fab, V domains shown, also called SUR-FL-47 Fab) VH: EVQLVESGGGLVQPGGSLRLSCAASGFNVSYSSIHWVRQAPGKGLEWVASIYSYYGYTSYADSVKGRFTISADTSKNTAYLQMNSLRAEDTAVYYCARWPHYWGQGVSSMDYWGQGTLVTVSS VL: DIQMTQSPSSLSASVGDRVTITCRASQSVSSAVAWYQQKPGKAPKLLIYSASSLYSGVPSRFSGSRSGTDFTLTISSLQPEDFATYYCQQSYYFPVTFGQGTKVEIKR , reported EC50: 29

Entry SUR-FL-23 (Fab, V domains shown, also called SUR-FL-23 Fab) VH: EVQLVESGGGLVQPGGSLRLSCAASGFNFSSSSIHWVRQAPGKGLEWVASISSYSSSTSYADSVKGRFTISADTSKNTAYLQMNSLRAEDTAVYYCARYMVSMWSYSWYVKWYAMDYWGQGTLVTVSS VL: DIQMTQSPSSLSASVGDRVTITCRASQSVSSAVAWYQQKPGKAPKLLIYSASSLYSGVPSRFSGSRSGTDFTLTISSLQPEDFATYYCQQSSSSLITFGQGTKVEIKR ; EC50 = 1

The value of EC50 measured for the binder SUR-N-37 (Fab, V domains shown, also called SUR-N-37 Fab) VH: EVQLVESGGGLVQPGGSLRLSCAASGFNVSYSSIHWVRQAPGKGLEWVASISSYYGSTSYADSVKGRFTISADTSKNTAYLQMNSLRAEDTAVYYCARSTYYSWYPYYYAMWHQHGMDYWGQGTLVTVSS VL: DIQMTQSPSSLSASVGDRVTITCRASQSVSSAVAWYQQKPGKAPKLLIYSASSLYSGVPSRFSGSRSGTDFTLTISSLQPEDFATYYCQQSPMYSLITFGQGTKVEIKR turned out to be 1

What the record says about SUR-N-36 Fab (Fab, V domains shown) VH: EVQLVESGGGLVQPGGSLRLSCAASGFNVSYSSIHWVRQAPGKGLEWVASIYPYYGYTSYADSVKGRFTISADTSKNTAYLQMNSLRAEDTAVYYCAREEYSTVQYWYYYWYPGMDYWGQGTLVTVSS VL: DIQMTQSPSSLSASVGDRVTITCRASQSVSSAVAWYQQKPGKAPKLLIYSASSLYSGVPSRFSGSRSGTDFTLTISSLQPEDFATYYCQQYMYSPITFGQGTKVEIKR : EC50 is 2

Per the records, this binder ( SUR-N-09 (Fab, V domains shown, also called SUR-N-09 Fab) VH: EVQLVESGGGLVQPGGSLRLSCAASGFNFYYSSIHWVRQAPGKGLEWVASISPYSGYTSYADSVKGRFTISADTSKNTAYLQMNSLRAEDTAVYYCARYMYYGWALDYWGQGTLVTVSS VL: DIQMTQSPSSLSASVGDRVTITCRASQSVSSAVAWYQQKPGKAPKLLIYSASSLYSGVPSRFSGSRSGTDFTLTISSLQPEDFATYYCQQGQWWGLITFGQGTKVEIKR ) has EC50 equal to 30
